# Tested on: 186277-243-T-J2-PDC multi-cell spheroid viability
# protocol.notes: Anticancer human tumor 186277-243-T-J2-PDC patient-derived colon adenocarcinoma cell line growth inhibition [PI3K]
# condition.description: second compound 10 µM; first compound 3.16 µM; hits give low values
assay.endpoint: viability, T/C (%)
Numbers only; they are read as %.

compound="CC1(C)CCC(Nc2ncc(C(F)(F)F)c(-c3c[nH]c4c(P(C)(C)=O)c(C#N)ccc34)n2)CN1 (centres undefined) + CC(Nc1ncnc2nc[nH]c12)c1cc2cccc(Cl)c2c(=O)n1-c1ccccc1" assay_endpoint="viability, T/C" readout_number=30.2
compound="CCCS(=O)(=O)Nc1ccc(F)c(C(=O)c2c[nH]c3ncc(-c4ccc(Cl)cc4)cc23)c1F + Cc1nc(NC(=O)N2CCCC2C(N)=O)sc1-c1ccnc(C(C)(C)C(F)(F)F)c1" assay_endpoint="viability, T/C" readout_number=38.8
compound="CC(C)NCC(C(=O)N1CCN(c2ncnc3c2C(C)CC3O)CC1)c1ccc(Cl)cc1 (centres undefined) + CC(Nc1ncnc2nc[nH]c12)c1cc2cccc(Cl)c2c(=O)n1-c1ccccc1" assay_endpoint="viability, T/C" readout_number=21.4

Query compound follows.
Value of viability, T/C reported for the compound C=CC(=O)N1CCN(c2nc(=O)n(-c3c(C)ccnc3C(C)C)c3nc(-c4c(O)cccc4F)c(F)cc23)C(C)C1 (centres undefined) + CC(Nc1ncnc2nc[nH]c12)c1cc2cccc(Cl)c2c(=O)n1-c1ccccc1 is 87.5

* * *

# Tested on: 186277-243-T-J2-PDC multi-cell spheroid viability
# protocol.notes: Anticancer human tumor 186277-243-T-J2-PDC cell line growth inhibition [PI3K];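 note: spheroids exposed to compounds for seven days before viability reading; 100% = DMSO vehicle control viability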
# condition.description: second compound 0.00316 µM; first compound 0.01 µM; hits give low values
assay.endpoint: viability, T/C

Below are worked cases with known answers.
compound="CCN1CCN(Cc2ccc(Nc3ncc(F)c(-c4cc(F)c5nc(C)n(C(C)C)c5c4)n3)nc2)CC1 + COc1c(OCCCN2CCOCC2)ccc2c3n(c(=NC(=O)c4cnc(N)nc4)nc12)CCN3" result=111%
compound="CC(=O)c1c(C)c2cnc(Nc3ccc(N4CCNCC4)cn3)nc2n(C2CCCC2)c1=O + CC(Nc1ccc2c(c1)OCCn1cc(N3C(=O)OCC3C(F)F)nc1-2)C(N)=O" result=98.5%

Value of viability, T/C reported for the compound Cn1ncnc1[C@H]1c2n[nH]c(=O)c3cc(F)cc(c23)N[C@@H]1c1ccc(F)cc1 + CC(Nc1ccc2c(c1)OCCn1cc(N3C(=O)OCC3C(F)F)nc1-2)C(N)=O is 91%

* * *

# Test system: 186277-243-T-J2-PDC multi-cell spheroid viability
# protocol.notes: Anticancer human tumor 186277-243-T-J2-PDC cell line growth inhibition [PI3K];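 note: spheroids exposed to compounds for seven days before viability reading; 100% = DMSO vehicle control viability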
# condition.description: second compound 0.0316 µM; first compound 0.01 µM; hits give low values
assay.endpoint: viability, T/C (%)
Numbers only; they are read as %.

Below are worked cases with known answers.
compound="CCN1CCN(Cc2ccc(Nc3ncc(F)c(-c4cc(F)c5nc(C)n(C(C)C)c5c4)n3)nc2)CC1 + Cc1nc(NC(=O)N2CCCC2C(N)=O)sc1-c1ccnc(C(C)(C)C(F)(F)F)c1" readout_number=116
compound="CCN1CCN(Cc2ccc(Nc3ncc(F)c(-c4cc(F)c5nc(C)n(C(C)C)c5c4)n3)nc2)CC1 + CC(Nc1ccc2c(c1)OCCn1cc(N3C(=O)OCC3C(F)F)nc1-2)C(N)=O" readout_number=93.3

Query compound follows.
Value of viability, T/C reported for the compound Cn1ncnc1[C@H]1c2n[nH]c(=O)c3cc(F)cc(c23)N[C@@H]1c1ccc(F)cc1 + CC(Nc1ccc2c(c1)OCCn1cc(N3C(=O)OCC3C(F)F)nc1-2)C(N)=O is 97.9
